Target or system Stromelysin-1 (Homo sapiens); metric IC50; compiled from varied reports.
RESULT TYPE: IC50

>>> obs_value("CN1CCN(C(=O)CC2CC[C@H](C(=O)N3CCN(c4ccccc4)CC3)[C@@H](C(=O)NO)C2)CC1 (mixture of isomers)")
"> 5 µM"
>>> obs_value("Cc1ccccc1C1CCN(S(=O)(=O)CC2(C(=O)NO)CCN(C(=O)O[C@H]3CCOC3)CC2)CC1")
"> 5 µM"
>>> obs_value("Cc1ccc(-c2ccc(S(=O)(=O)N[C@H](Cc3c[nH]c4ccccc34)C(=O)O)s2)cc1")
"> 1 µM"
>>> obs_value("O=C(NO)[C@H]1CC2(CC2)CN[C@@H]1C(=O)N1CCN(c2ccccc2)CC1")
"> 5 µM"
